target: recombinant RORγ Ligand Binding Domain (LBD) protein (Homo sapiens); construct: 6×His; GST; assay: Radio-Ligand RORγ Binding Assay (Assay 1); settings: radio-ligand competition, 25-hydroxy [26,27-3H]-cholesterol, RORγ LBD; read-out: Avg ROR Bind Ki
Sequence (P51449 269-508 limits assumed): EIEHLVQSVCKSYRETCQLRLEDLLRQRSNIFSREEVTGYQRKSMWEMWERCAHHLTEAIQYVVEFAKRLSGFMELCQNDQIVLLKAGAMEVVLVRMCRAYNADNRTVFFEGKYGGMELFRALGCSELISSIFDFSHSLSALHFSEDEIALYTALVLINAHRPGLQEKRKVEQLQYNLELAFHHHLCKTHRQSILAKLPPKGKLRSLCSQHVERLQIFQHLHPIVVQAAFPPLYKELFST
Catalogue of Ki readings, one per entry.
quantity kind: Ki

compound="CCS(=O)(=O)c1ccc(CNC(=O)c2ccc3c(c2)CN(c2ncc(-c4ccc(=O)[nH]c4)cn2)C[C@H]3C(C)C)cc1 (single isomer, unassigned)" test_system="recombinant RORγ Ligand Binding Domain (LBD) protein (Homo sapiens)" result="< 100 nM"
compound="CCS(=O)(=O)c1ccc(CNC(=O)c2ccc3c(c2)CCN(Cc2ncc(Br)cn2)[C@H]3C(C)C)cc1 (single isomer, unassigned)" test_system="recombinant RORγ Ligand Binding Domain (LBD) protein (Homo sapiens)" result="< 100 nM"
compound="CC[C@@H]1CN(c2ncc(C(F)(F)F)cn2)Cc2cc(C(=O)NCc3ccc(S(=O)(=O)CC)cn3)ccc21 (single isomer, unassigned)" test_system="recombinant RORγ Ligand Binding Domain (LBD) protein (Homo sapiens)" result="100 to 1000 nM"
compound="CCS(=O)(=O)c1ccc(CNC(=O)c2ccc3c(c2)CN(c2ncc(C#N)cn2)C[C@@H]3C(C)C)cc1 (single isomer, unassigned)" test_system="recombinant RORγ Ligand Binding Domain (LBD) protein (Homo sapiens)" result="100 to 1000 nM"
compound=CCS(=O)(=O)c1ccc(CNC(=O)c2cn(C)c3c(OC[C@H]4CC[C@H](C(F)(F)F)CC4)nccc23)cc1 test_system="recombinant RORγ Ligand Binding Domain (LBD) protein (Homo sapiens)" result="100 to 1000 nM"
compound="CCS(=O)(=O)c1ccc(CNC(=O)c2ccc3c(c2)CN(c2ncc(C4CC4)cn2)C[C@@H]3C(C)C)cc1 (single isomer, unassigned)" test_system="recombinant RORγ Ligand Binding Domain (LBD) protein (Homo sapiens)" result="< 100 nM"
